method: physchem;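 also: lipophilicity determined by HPLC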
condition_context: buffer, pH 7.4
metric_name: logD

[[record]]
smiles_notation = "COc1ccc(-c2cc(C(C)=O)ccc2OCc2ccncn2)cc1"
reported_measurement = 4.5

[[record]]
smiles_notation = "COc1ccc(-c2c(C)cccc2OCc2ccccn2)cc1"
reported_measurement = 6.7

[[record]]
smiles_notation = "Cc1ccc(-c2ccccc2OCc2ccccn2)cc1"
reported_measurement = 7

[[record]]
smiles_notation = "COc1cccc(-c2cc(C(C)=O)ccc2OCc2ccccn2)c1"
reported_measurement = 5.4

[[record]]
smiles_notation = "COc1ccc(-c2cc(F)ccc2OCc2ccccn2)cc1"
reported_measurement = 6.4

[[record]]
smiles_notation = "COc1ccc(-c2cc(C(C)=O)ccc2OCc2cnccn2)cc1"
reported_measurement = 4.7

[[record]]
smiles_notation = "COc1ccc(-c2nc(C)ccc2OCc2ncccc2C)cc1"
reported_measurement = 5.3

[[record]]
smiles_notation = "Cc1ccnc(COc2ccc(C#N)cc2-c2ccc3c(c2)CCNCC3)c1"
reported_measurement = 2.8

[[record]]
smiles_notation = "CC(=O)c1ccc(OCc2ccccn2)c(-c2ccc(F)cc2)c1"
reported_measurement = 5.6

[[record]]
smiles_notation = "COc1ccc(-c2c(OC)cccc2OCc2ccccn2)cc1"
reported_measurement = 5.8

[[record]]
smiles_notation = "COc1ccc(OCc2cc(C)ccn2)c(-c2ccc3c(c2)CCNCC3)c1"
reported_measurement = 3

[[record]]
smiles_notation = "CC(=O)c1ccc(OCc2ccccn2)c(-c2ccc3c(c2)CNC3)c1"
reported_measurement = 2.1

[[record]]
smiles_notation = "COc1ccc(-c2c(F)cccc2OCc2ccccn2)cc1"
reported_measurement = 6.2

[[record]]
smiles_notation = "CC(=O)c1ccc(OCc2ccccn2)c(-c2ccccc2)c1"
reported_measurement = 5

[[record]]
smiles_notation = "CC(=O)c1ccc(OCc2ccccn2)c(-c2ccc3c(c2)CCNCC3)c1"
reported_measurement = 2.3

[[record]]
smiles_notation = "COc1ccc(-c2ccc(OC)cc2OCc2ccccn2)cc1"
reported_measurement = 6.2

[[record]]
smiles_notation = "CC(=O)c1ccc(OCc2ccccn2)c(-c2ccc3c(c2)CNCC3)c1"
reported_measurement = 2.2

[[record]]
smiles_notation = "COc1ccc(-c2ccc3c(c2)CCNCC3)c(OCc2cc(C)ccn2)c1"
reported_measurement = 3

[[record]]
smiles_notation = "CCOc1ccnc(COc2ccc(C(C)=O)cc2-c2ccc3c(c2)CCNCC3)c1"
reported_measurement = 2.7

[[record]]
smiles_notation = "CC(=O)c1ccc(OCc2ccccn2)c(-c2ccc(C)cc2)c1"
reported_measurement = 6.1

[[record]]
smiles_notation = "COc1ccc(-c2cc(C(C)=O)ccc2OCc2ncccn2)cc1"
reported_measurement = 4.5

[[record]]
smiles_notation = "CNC(=O)c1ccc(OCc2cc(C)ccn2)c(-c2ccc3c(c2)CCNCC3)c1"
reported_measurement = 1.9

[[record]]
smiles_notation = "CCc1ccnc(COc2ccc(C(C)=O)cc2-c2ccc3c(c2)CCNCC3)c1"
reported_measurement = 2.8

[[record]]
smiles_notation = "COc1ccc(-c2cc(C(C)=O)ccc2OCc2cccnn2)cc1"
reported_measurement = 4.1

[[record]]
smiles_notation = "COc1ccc(-c2nc(C)ccc2OCc2cccc(C)n2)cc1"
reported_measurement = 5.5

[[record]]
smiles_notation = "COc1ccc(-c2ccc(F)cc2OCc2ccccn2)cc1"
reported_measurement = 6.6

[[record]]
smiles_notation = "CC(=O)c1ccc(OCc2ccccn2)c(-c2ccc3c(c2)CCCNC3)c1"
reported_measurement = 2.3

[[record]]
smiles_notation = "CC(=O)c1ccc(OCc2cc(C)ccn2)c(-c2ccc3c(c2)CCNCC3)c1"
reported_measurement = 2.5

[[record]]
smiles_notation = "COc1cccc(OCc2cnccn2)c1-c1ccc2c(c1)CCNCC2"
reported_measurement = 2.2

[[record]]
smiles_notation = "COc1ccc(-c2cc(OC)ccc2OCc2ccccn2)cc1"
reported_measurement = 6

[[record]]
smiles_notation = "COc1ccc(-c2nc(C)ccc2OCc2ccccn2)cc1"
reported_measurement = 5

